B1: F1*; the commonest letter at each place (parent)
chain: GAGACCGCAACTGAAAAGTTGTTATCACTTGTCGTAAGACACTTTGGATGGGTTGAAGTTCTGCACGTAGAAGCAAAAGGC

# Variants of: B1
# measurement.notes: fraction ligated after 30 min (ligated reads / total reads); higher = more ligase activity
# test.conditions: with F1*sub RNA substrate (template-directed ligation), 42 °C
readout.name: fraction ligated
A bare number is all that is needed in reply.

Here's what some known entries look like.
>>> recorded_result("A27G T44G")
0.813
>>> recorded_result("T32G T49A")
0.56

Answer with the recorded fraction ligated for the variant listed here: A24G T25G 0.368
